Taken from ChEMBL document CHEMBL1137457.

test: Cytotoxicity against Huh7 cells by XTT assay; type: cell-based; conditions: human, huh-7
RECORDED_ENDPOINT: CC50

Here's what some known entries look like.
OC[C@H]1O[C@@H](n2cnc3c(Cl)ncnc32)C[C@@H]1O ... 173 µM
OC[C@@H]1C[C@@H](O)[C@H](n2cnc3c(Cl)ncnc32)O1 ... > 200 µM
OCC(CO)CCn1cnc2c(Cl)ncnc21 ... > 200 µM

Look up CC50 for the entries below, preserving their order.
1. Nc1ncnc2c1ncn2[C@H]1C[C@H](O)[C@@H](COC(=O)c2ccccc2)O1
2. OC[C@H]1O[C@@H](n2cnc3c(Cl)ncnc32)[C@H](O)[C@@H]1O

["> 200 µM", "> 200 µM"]

---

experiment: Cytotoxicity against Huh7 cells by XTT assay; format: cell-based; conditions: human, huh-7
RECORDED_ENDPOINT: CC50

Here's what some known entries look like.
O=C(OC[C@H]1C[C@@H](n2cnc3c(Cl)ncnc32)[C@@H]1CO)c1ccccc1 ... 20 µM
NC(=O)c1ncn([C@@H]2O[C@H](CO)[C@@H](O)[C@H]2O)n1 ... > 200 µM
O=S(=O)(OC[C@H]1O[C@@H](n2cnc3c(Cl)ncnc32)C[C@@H]1O)c1ccccc1 ... 146 µM

Look up CC50 for the entries below, preserving their order.
1. Cc1cc(C)c(C(=O)OC[C@H]2O[C@@H](n3cnc4c(Cl)ncnc43)C[C@@H]2O)c(C)c1
2. C=CCOC[C@H]1O[C@@H](n2cnc3c(Cl)ncnc32)C[C@@H]1O

["91 µM", "140 µM"]
